- System: A549 tumor
- test: In vivo fluorescence optical imaging and ex vivo organ distribution in A549 tumor-bearing nude mice
- setup_conditions: 0.3 μmol per kg via lateral tail vein, fluorescence imaging
Where a SMILES comes first, the peptide text is derived from it. [ ]: non-standard residue; d: D form. The star is where a group is joined. Cypate = CC1(C)C(/C=C/C=C/C=C/C=C2/N(CCC(=O)*)c3ccc4ccccc4c3C2(C)C)=[N+](CCC(=O)O)c2ccc3ccccc3c21

compound	uptake / retention in A549 tumor
CC(C)[C@@H]1NC(=O)[C@@H](Cc2ccccc2)NC(=O)[C@H](CC(=O)O)NC(=O)CNC(=O)[C@H](CCCNC(=N)N)NC(=O)[C@H](CCCCNC(=O)CCN2/C(=C/C=C/C=C/C=C/C3=[N+](CCC(=O)O)c4ccc5ccccc5c4C3(C)C)C(C)(C)c3c2ccc2ccccc32)NC1=O [Cyp-cyclo-RGD, Cypate-cyclo[RGDfVK^(Cypate)]] (cyclo(RGD[dF]VK(Cypate)))	preferentially localized
CC1(C)C(/C=C/C=C/C=C/C=C2/N(CCC(=O)NCC(=O)N[C@@H](CCCNC(=N)N)C(=O)NCC(=O)N[C@@H](CC(=O)O)C(=O)N[C@@H](CO)C(=O)N3CCC[C@H]3C(=O)N[C@@H](CCCCN)C(=O)O)c3ccc4ccccc4c3C2(C)C)=[N+](CCC(=O)O)c2ccc3ccccc3c21 [Cyp-RGD, Cypate-GRGDSPK]	preferentially localized
